Hey, just so you know, these numbers are from ChEMBL document CHEMBL1921725.

Assay: AUC in rapid rat model at 10 mg/kg, po
Assay type: ADME, organism-based
Parameters: dose 10 mg/kg, route oral
Conditions: in vivo
Quick rule for you: AUC under 3 µM·h gets 1, anything else gets 0.

chemical_string: CCN1C(=O)c2nc(-c3ccc(-c4ccc(F)cc4)nc3)n(Cc3ccc(F)c(F)c3)c2N2CC(C)(C)N=C12
assigned_class: 0
//
chemical_string: CCN1C(=O)c2nc(-c3ccc(-c4cccc(F)c4)nc3)n(Cc3ccc(F)c(F)c3)c2N2CC(C)(C)N=C12
assigned_class: 0
//
chemical_string: CCN1C(=O)c2nc(-c3ccc(-c4ccccc4OC)nc3)n(Cc3ccc(F)c(F)c3)c2N2CC(C)(C)N=C12
assigned_class: 1
//
chemical_string: CCN1C(=O)c2nc(-c3ccc(-c4cccc(C)c4)nc3)n(Cc3ccc(F)c(F)c3)c2N2CC(C)(C)N=C12
assigned_class: 1
//
chemical_string: CCN1C(=O)c2nc(-c3ccc(-c4ccccc4)cc3)n(Cc3ccc(F)c(F)c3)c2N2C[C@@H](C(C)C)N=C12
assigned_class: 0
//
chemical_string: CCN1C(=O)c2nc(-c3ccc(-c4ccc(F)cc4F)nc3)n(Cc3ccc(F)c(F)c3)c2N2CC(C)(C)N=C12
assigned_class: 0
//
chemical_string: CCN1C(=O)c2nc(-c3ccc(-c4ccccc4)nc3)n(Cc3ccc(F)c(F)c3)c2N2CC(C)(C)N=C12
assigned_class: 0
//
chemical_string: CCN1C(=O)c2nc(-c3ccc(-c4ccccc4)cc3)n(Cc3cc(F)cc(F)c3)c2N2C[C@@H](C(C)C)N=C12
assigned_class: 1
//
chemical_string: CCN1C(=O)c2nc(-c3ccc(-c4ccccc4)cc3)n(Cc3ccc(F)c(F)c3)c2N2CC(C)(C)N=C12
assigned_class: 0
//
chemical_string: CCN1C(=O)c2nc(-c3ccc(-c4ccc(C(F)(F)F)cc4)nc3)n(Cc3ccc(F)c(F)c3)c2N2CC(C)(C)N=C12
assigned_class: 0
//
chemical_string: CCN1C(=O)c2nc(-c3ccc(-c4ccccc4F)nc3)n(Cc3ccc(F)c(F)c3)c2N2CC(C)(C)N=C12
assigned_class: 1
//
chemical_string: CCN1C(=O)c2nc(-c3ccc(-c4cccc(C(F)(F)F)c4)nc3)n(Cc3ccc(F)c(F)c3)c2N2CC(C)(C)N=C12
assigned_class: 1
//
chemical_string: CCN1C(=O)c2nc(-c3ccc(-c4cc(F)cc(F)c4)nc3)n(Cc3ccc(F)c(F)c3)c2N2CC(C)(C)N=C12
assigned_class: 0
